These data points were gathered from patent US5830909A.

- TARGET SYSTEM: AII receptor (Rattus norvegicus, UniProt P25095)
- Construct: adipose tissue from the epididymal and retroperitoneal depots is quickly excised; from tissue; host or cells: membranes of collagenase-isolated adipocytes from epididymal and retroperitoneal fat of male Sprague-Dawley rats
- Sequence (P25095 1-359): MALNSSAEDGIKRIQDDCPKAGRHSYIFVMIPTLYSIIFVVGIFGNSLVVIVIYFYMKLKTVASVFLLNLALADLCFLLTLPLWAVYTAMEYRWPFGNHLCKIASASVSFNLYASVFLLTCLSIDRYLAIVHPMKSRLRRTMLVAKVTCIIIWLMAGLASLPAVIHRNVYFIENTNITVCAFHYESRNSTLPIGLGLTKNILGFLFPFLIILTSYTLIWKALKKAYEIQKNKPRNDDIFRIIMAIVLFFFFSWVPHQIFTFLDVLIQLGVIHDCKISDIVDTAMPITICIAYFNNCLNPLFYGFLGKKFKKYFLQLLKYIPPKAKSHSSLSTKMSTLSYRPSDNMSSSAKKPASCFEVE
- TEST DETAILS: Displacement of 125I[Sar,Ile]AII binding in rat epididymal fat cell membranes
- DETAILS: Epididymal IC50 for displacement of 125I[Sar,Ile]AII binding, rat epididymal fat cell membranes (Table 8)
- Experimental: The experimental design involves determining the binding characteristics of adipocyte membranes harvested from two different anatomic sites at three different ages. […] Protein content of the high speed pellet is determined, the resuspended protein is either assayed immediately or stored at -75° before binding assays are performed. […] Separation of bound from free radioactivity is achieved using any appropriate filtration apparatus. […]
QUANTITY MEASURED: IC50 (nM)
Your answer should be a plain number; it is taken to be in nM.

Provide measured IC50 on AII receptor (Rattus norvegicus, UniProt P25095) for CCCCc1nc2ccc(C3(C(=O)OC)CC4CCCN4O3)cc2c(=O)n1Cc1ccc(-c2ccccc2-c2nnn[nH]2)cc1 (mixture of isomers) please.
23.5

---

- TARGET SYSTEM: AII receptor (Rattus norvegicus, UniProt P25095)
- Construct: adipose tissue from the epididymal and retroperitoneal depots is quickly excised; from tissue; host or cells: membranes of collagenase-isolated adipocytes from epididymal and retroperitoneal fat of male Sprague-Dawley rats
- TEST DETAILS: Displacement of 125I[Sar,Ile]AII binding in rat epididymal fat cell membranes
- DETAILS: Epididymal IC50 for displacement of 125I[Sar,Ile]AII binding, rat epididymal fat cell membranes (Table 8)
Counter-ions that a name gives are not always drawn.
Please respond with rule met when measured IC50 is strictly beneath 0.008 µM, and with rule not met in all other cases.

Hello, I'm reviewing records and need to know if IC50 of CCCCc1nc2ccc(COc3ccccn3)cc2c(=O)n1Cc1ccc(-c2ccccc2-c2nn[nH]n2)cc1 [hydrochloride] is below 0.008 µM. Could you check?
rule not met

Hello, I'm reviewing records and need to know if IC50 of CCCCc1nc2ccc(C3=NN4CCCCC4C3)cc2c(=O)n1Cc1ccc(-c2ccccc2-c2nn[nH]n2)cc1 (centres unmarked) is below 0.008 µM. Could you check?
rule not met

Hello, I'm reviewing records and need to know if IC50 of `CCCCc1nc2ccc([C@@H]3C[C@@H](CO)ON3C)cc2c(=O)n1Cc1ccc(-c2ccccc2-c2nnn[nH]2)cc1` is below 0.008 µM. Could you check?
rule not met

Hello, I'm reviewing records and need to know if IC50 of CCc1nc2c(C)cc(C)nc2n1Cc1ccc(-c2ccccc2-c2nnn[nH]2)cc1 [reference compound] is below 0.008 µM. Could you check?
rule met

Hello, I'm reviewing records and need to know if IC50 of CCCCc1nc2ccc([C@@]3(C)C[C@@H]4CCCN4O3)cc2c(=O)n1Cc1ccc(-c2ccccc2-c2nnn[nH]2)cc1 (racemic) [sodium salt] is below 0.008 µM. Could you check?
rule not met

Hello, I'm reviewing records and need to know if IC50 of CCCCc1nc2ccc(C3CC(c4ccc(C)cc4)=NO3)cc2c(=O)n1Cc1ccc(-c2ccccc2-c2nnn[nH]2)cc1 (centres unmarked) is below 0.008 µM. Could you check?
rule not met

Hello, I'm reviewing records and need to know if IC50 of CCCCc1nc2ccc(C3(C)CC(C(=O)OCC)=NO3)cc2c(=O)n1Cc1ccc(-c2ccccc2-c2nn[nH]n2)cc1 (centres unmarked) is below 0.008 µM. Could you check?
rule not met

Hello, I'm reviewing records and need to know if IC50 of CCCc1nc(C)n2[nH]c(=O)nc2c1Cc1ccc(-c2ccccc2-c2nnn[nH]2)cc1 [reference compound] is below 0.008 µM. Could you check?
rule met

Hello, I'm reviewing records and need to know if IC50 of `CCCCc1nc2ccc(COc3ccccc3)cc2c(=O)n1Cc1ccc(-c2ccccc2-c2nnn[nH]2)cc1` is below 0.008 µM. Could you check?
rule not met

---

- TARGET SYSTEM: AII receptor (Rattus norvegicus, UniProt P25095)
- Construct: adipose tissue from the epididymal and retroperitoneal depots is quickly excised; from tissue; host or cells: membranes of collagenase-isolated adipocytes from epididymal and retroperitoneal fat of male Sprague-Dawley rats
- TEST DETAILS: Displacement of 125I[Sar,Ile]AII binding in rat retroperitoneal fat cell membranes
QUANTITY MEASURED: IC50 (µM)
Your answer should be a plain number; it is taken to be in µM.

Look up and state reported IC50 for Cc1cc(Cn2cnc3c2C[C@@H](C(=O)O)N(C(=O)C(c2ccccc2)c2ccccc2)C3)ccc1N(C)C [reference compound]
242

---

- TARGET SYSTEM: AII receptor (Rattus norvegicus, UniProt P25095)
- Construct: adipose tissue from the epididymal and retroperitoneal depots is quickly excised; from tissue; host or cells: membranes of collagenase-isolated adipocytes from epididymal and retroperitoneal fat of male Sprague-Dawley rats
- TEST DETAILS: Displacement of 125I[Sar,Ile]AII binding in rat epididymal fat cell membranes
- DETAILS: Inhibitory Constants (IC50) for displacement of 125I[Sar,Ile]AII binding, Epididymal, rat epididymal fat cell membranes; 1 nM radioligand; 1-4 assays
QUANTITY MEASURED: IC50 (µM)
Your answer should be a plain number; it is taken to be in µM.

Look up and state reported IC50 for Cc1cc(Cn2cnc3c2C[C@@H](C(=O)O)N(C(=O)C(c2ccccc2)c2ccccc2)C3)ccc1N(C)C [reference compound]
173
